target: KAT6A (Homo sapiens, UniProt Q92794); construct: These studies were conducted in the HCC1954 cell line which harbors a KAT6A copy number amplification; endogenous in cells; host or cells: HCC1954; test: Western Blot KAT6A Degradation Assessment; assay type: cell-based; conditions: 0.1 μM compound, 24 hours of treatment, HCC1954 cell line, KAT6A normalized to GAPDH and DMSO
Sequence (Q92794 whole entry): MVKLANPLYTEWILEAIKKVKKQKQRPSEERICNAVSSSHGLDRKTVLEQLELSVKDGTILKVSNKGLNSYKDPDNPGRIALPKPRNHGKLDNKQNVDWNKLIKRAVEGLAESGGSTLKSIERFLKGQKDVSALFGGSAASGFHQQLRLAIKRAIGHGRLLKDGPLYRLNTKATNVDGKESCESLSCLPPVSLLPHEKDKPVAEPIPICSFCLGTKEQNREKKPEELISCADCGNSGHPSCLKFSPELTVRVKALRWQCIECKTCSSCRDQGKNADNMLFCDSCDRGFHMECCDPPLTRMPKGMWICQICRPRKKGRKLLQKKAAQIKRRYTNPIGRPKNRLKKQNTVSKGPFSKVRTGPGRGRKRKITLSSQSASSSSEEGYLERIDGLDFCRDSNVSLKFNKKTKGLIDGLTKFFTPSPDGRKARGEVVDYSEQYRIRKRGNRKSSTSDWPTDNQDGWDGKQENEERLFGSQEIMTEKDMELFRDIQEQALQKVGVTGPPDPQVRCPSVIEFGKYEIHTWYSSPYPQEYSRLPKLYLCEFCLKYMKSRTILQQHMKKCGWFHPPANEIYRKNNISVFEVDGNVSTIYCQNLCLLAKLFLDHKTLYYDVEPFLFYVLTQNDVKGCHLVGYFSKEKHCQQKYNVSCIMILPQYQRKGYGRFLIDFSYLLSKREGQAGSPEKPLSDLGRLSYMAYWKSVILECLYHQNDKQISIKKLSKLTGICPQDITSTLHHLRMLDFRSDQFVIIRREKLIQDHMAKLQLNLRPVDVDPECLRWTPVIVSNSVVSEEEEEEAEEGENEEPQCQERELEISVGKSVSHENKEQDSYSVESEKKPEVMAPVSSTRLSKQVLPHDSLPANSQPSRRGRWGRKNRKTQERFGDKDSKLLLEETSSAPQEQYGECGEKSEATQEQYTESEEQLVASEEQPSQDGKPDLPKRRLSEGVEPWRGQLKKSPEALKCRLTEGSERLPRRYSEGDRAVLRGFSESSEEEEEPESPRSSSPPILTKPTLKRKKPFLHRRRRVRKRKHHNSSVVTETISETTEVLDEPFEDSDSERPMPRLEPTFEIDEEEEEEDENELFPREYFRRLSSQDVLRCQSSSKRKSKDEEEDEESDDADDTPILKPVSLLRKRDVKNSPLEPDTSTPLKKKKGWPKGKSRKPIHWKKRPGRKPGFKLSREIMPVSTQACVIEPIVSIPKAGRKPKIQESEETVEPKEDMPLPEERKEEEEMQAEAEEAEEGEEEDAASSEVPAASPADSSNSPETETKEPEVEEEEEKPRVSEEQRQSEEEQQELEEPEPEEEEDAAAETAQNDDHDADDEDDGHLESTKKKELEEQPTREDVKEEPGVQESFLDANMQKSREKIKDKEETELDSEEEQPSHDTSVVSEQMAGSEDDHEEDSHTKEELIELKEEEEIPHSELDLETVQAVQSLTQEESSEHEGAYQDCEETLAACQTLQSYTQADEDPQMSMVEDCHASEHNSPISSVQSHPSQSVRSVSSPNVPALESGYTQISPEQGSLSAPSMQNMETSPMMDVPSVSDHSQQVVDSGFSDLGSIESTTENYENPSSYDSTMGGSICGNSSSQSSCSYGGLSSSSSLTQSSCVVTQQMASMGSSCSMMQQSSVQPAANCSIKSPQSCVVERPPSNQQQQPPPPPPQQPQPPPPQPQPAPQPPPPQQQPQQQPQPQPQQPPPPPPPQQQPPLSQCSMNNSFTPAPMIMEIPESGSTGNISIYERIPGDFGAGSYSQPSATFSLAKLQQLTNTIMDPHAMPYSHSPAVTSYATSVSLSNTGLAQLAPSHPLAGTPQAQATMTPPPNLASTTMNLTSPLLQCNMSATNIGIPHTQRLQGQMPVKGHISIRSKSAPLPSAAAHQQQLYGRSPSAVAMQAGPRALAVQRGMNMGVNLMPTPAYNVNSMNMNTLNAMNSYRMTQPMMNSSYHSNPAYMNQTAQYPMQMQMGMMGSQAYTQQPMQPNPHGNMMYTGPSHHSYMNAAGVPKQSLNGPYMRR
measured endpoint: inhibition at 0.1 µM

The cases that follow already have their inhibition at 0.1 µM on record.
COc1cc(Cn2cccn2)cc2onc(NS(=O)(=O)c3cccc(N4CCN(CC5CCN(CC6CCN(c7ccc8c(c7)C(=O)N(C7CCC(=O)NC7=O)C8=O)CC6)CC5)CC4)c3)c12 (stereo not drawn): > 75%
COc1cc(Cn2cccn2)cc2onc(NS(=O)(=O)c3cccc(N4CCC(CN5CCN(c6ccc7c(c6)c6cccnc6n7C6CCC(=O)NC6=O)CC5)C4)c3)c12 (stereo not drawn): 50 to 75%

Now take the following compound into account.
Exam item: # inhibition at 0.1 µM lookup, item COc1cc(Cn2cccn2)cc2onc(NS(=O)(=O)c3cccc(N4CC5(CN(CC6CCN(c7ccc8c(c7)C(=O)N(C7CCC(=O)NC7=O)C8=O)C6)C5)C4)c3)c12 (stereo not drawn)
Marked response: 50 to 75%
